For each entry below, report its inhibition value.
- experiment_summary: inhibitors of Chlamydomonas gravitaxis, primary screen, whole organism, Chlamydomonas reinhardtii, WT vs cilia-less mutant, absorbance, 96-well (AID 463189);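 also: 0% = wild type cc124 cells in DMSO and 100% = ciliumless bld1 mutant cells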
- experimental_conditions: OD600 absorbance, 2 days, at 10 µM, active compounds read high
API: value field is a number in %; no unit string.

Request: inhibition for Cn1c(=O)c2c(nc(NCc3ccco3)n2Cc2ccccc2Cl)n(C)c1=O ?
Result: -9.48

Request: Then this molecule: CC(NC(=O)CSc1nnc(COc2ccccc2)o1)c1ccccc1 (stereo not drawn)
Result: 5.02

Request: Then this molecule: CC1CCN(c2ncnc3c2cnn3Cc2ccc(Cl)cc2)CC1
Result: 4.22

Request: Then this molecule: CC(C)Cc1nc(N2CCN(C(=O)Cc3ccccc3)CC2)c(C#N)c2c1COC(C)(C)C2
Result: 13.3

Request: Then this molecule: Cc1cccc(OCCN2CSC(=S)N(C)C2)c1
Result: 45.3

Request: Then this molecule: Nc1ccc2oc(-c3ccccc3Cl)nc2c1
Result: 26.6

Request: Then this molecule: COc1ccc(C(=O)CCN2CCCCCC2)cc1
Result: -0.057

Request: Then this molecule: CCOc1ccc(N2C(=O)CC(N)C2=O)cc1 (stereo not drawn)
Result: 19.4

Request: Then this molecule: CC(NC(=O)NCc1cccnc1)(C(F)(F)F)C(F)(F)F
Result: 10.1

Request: Then this molecule: CCCCc1nc(N2CCOCC2)c(C#N)c2c1COC(C)(C)C2
Result: 1.03

Request: Then this molecule: CCC(NC(=O)Nc1ncccc1C)(C(F)(F)F)C(F)(F)F
Result: 35.4

Request: Then this molecule: O=c1c2sc3nc(N4CCOCC4)c4c(c3c2ncn1Cc1ccco1)CCCC4
Result: 30

Request: Then this molecule: CC(Sc1ccc2ccccc2n1)C(=O)O (stereo not drawn)
Result: -8.1

Request: Then this molecule: CC1(C)C2CCC1(C)C(OC(=O)CC(=O)O)C2 (stereo not drawn)
Result: 5.19

Request: Then this molecule: COc1ccccc1C(=O)NCC(=O)n1nc(C)cc1C
Result: -1.54

Request: Then this molecule: CCCCSc1nc(N)c(C#N)c(-c2cccs2)c1C#N
Result: -8.35

Request: Then this molecule: CN1CCc2c(C#N)c(N3CCCCC3)nc(N3CCOCC3)c2C1
Result: 4.52

Request: Then this molecule: Cc1ccc(N(CC(O)CN(C)C)S(=O)(=O)c2ccccc2)cc1 (stereo not drawn)
Result: 11.5

Request: Then this molecule: O=C(O)CCCC(=O)N1CCN(C(c2ccccc2)c2ccccc2)CC1
Result: -16

Request: Then this molecule: Cc1cc(OCC(=O)Nn2cnnc2)ccc1Br
Result: -9.18

Request: Then this molecule: N#Cc1c(N)n(CCOC(=O)c2ccc(Cl)cc2)c2nc3ccccc3nc12
Result: -2.92

Request: Then this molecule: C=CCNc1nc(C)nc(OC)n1
Result: -10.1

Request: Then this molecule: Oc1oc(-c2ccco2)nc1C=Nc1cccc(Cl)c1
Result: -1.6

Request: Then this molecule: CCC(CC)c1nc2cc(OC)c(OC)cc2c(=O)o1
Result: 0.563

Request: Then this molecule: CCOc1ccc(S(=O)(=O)N(C)CCO)cc1-c1nc2c(C(C)(C)C)nn(C)c2c(=O)[nH]1
Result: 8.59

Request: Then this molecule: O=C(Oc1oc(-c2ccco2)nc1C=Nc1ccccc1)c1ccco1
Result: 38.4

Request: Then this molecule: N#Cc1nc(COc2ccc(Br)cc2)oc1NCCN1CCOCC1
Result: -13.6

Request: Then this molecule: Cc1ccc(S(=O)(=O)N(CC(O)CN(C)C)c2ccccc2)cc1 (stereo not drawn)
Result: 2.93

Request: Then this molecule: Cn1c(=O)[nH]c(=O)c2c1nc(Br)n2CCSc1nnnn1-c1ccccc1
Result: 27.6

Request: Then this molecule: COc1ccc(N2CC(=O)N(c3ccc(OC)c(OC)c3)CC2=O)cc1OC
Result: 18.5

Request: Then this molecule: CCOC(=O)C1=C(C)NC(=O)C1CC(=O)Nc1ccccc1 (stereo not drawn)
Result: -5.87

Request: Then this molecule: Cc1cc(=O)oc(C)c1C(=O)NCCC1=CCCCC1
Result: -3.01

Request: Then this molecule: Cc1nnc(N2CCCCC2)c2ccccc12
Result: 47.9

Request: Then this molecule: O=C1c2ccccc2C(=O)N1CC1c2ccccc2CCN1C(=O)N1CCOCC1 (stereo not drawn)
Result: -3.71

Request: Then this molecule: COc1ccc(C2CC(c3ccc(C)cc3)Nc3nc(N)nn32)cc1 (stereo not drawn)
Result: -10.9

Request: Then this molecule: COc1cccc(C=NCCNC(=O)c2nonc2N)c1O
Result: -4.89

Request: Then this molecule: CCCC(=O)Nc1nn(CCC)c2nc3ccccc3cc12
Result: 6.78

Request: Then this molecule: Cn1c(OCc2cccnc2)nc2c1c(=O)n(Cc1ccccc1)c(=O)n2C
Result: 21.1

Request: Then this molecule: CCCCCNC(=O)C(C#N)c1nc2ccccc2nc1N1CC(C)OC(C)C1 (stereo not drawn)
Result: -1.81

Request: Then this molecule: COc1ccccc1C1/C(=C(\O)c2ccc3c(c2)OCCO3)C(=O)C(=O)N1CCCN(C)C (stereo not drawn)
Result: 12.8

Request: Then this molecule: CC12CN3CC(C)(CN(C1)C3c1ccc(Cl)cc1Cl)C2O (stereo not drawn)
Result: -8.3

Request: Then this molecule: COC(=O)NCC12CC3CC(C1)CC(CNC(=O)OC)(C3)C2
Result: -5.97

Request: Then this molecule: O=C(Cc1ccc(Cl)cc1)Nc1cccc(-c2nnc(-c3ccco3)o2)c1
Result: 5.58

Request: Then this molecule: CN(C)c1cccc2c(S(=O)(=O)N3CCOCC3)cccc12
Result: -1.61

Request: Then this molecule: O=C(CN1C(=O)c2ccccc2S1(=O)=O)NCCSCc1ccco1
Result: -7.41

Request: Then this molecule: CCc1nc(NCC2CCCO2)c(C#N)c2c1COC(C)(C)C2 (stereo not drawn)
Result: -12.9

Request: Then this molecule: COc1ccccc1NC(=O)Nc1nnc(C(C)C)s1
Result: 3.73

Request: Then this molecule: COc1cccc(NC(=O)C2CC(=O)n3cnnc3S2)c1 (stereo not drawn)
Result: 40.5

Origin of values: PubChem BioAssay
